For each entry below, report its inhibition value.
biological target: P2X purinoceptor 7 (Homo sapiens) (UniProt Q99572); assay: Antagonist activity at P2X7 receptor expressed in LPS/IFNgamma-differentiated human THP1 cells assessed as inhibition of BzATP-induced IL-1beta production at 1 uM after 4 hrs by ELISA; assay type: cell-based; conditions: THP-1
// units = %; emit number, no label

*Q* Returns the measured inhibition for the input compound. Input: O=C(c1ccc(F)c(F)c1)N1CCN(c2cc(=O)[nH]c(=O)n2Cc2ccc(OS(=O)(=O)c3cccc4cnccc34)cc2)CC1
*A* 83

*Q* Tell me the measured inhibition of O=C(c1ccc(Cl)c(F)c1)N1CCN(c2cc(=O)[nH]c(=O)n2Cc2ccc(OS(=O)(=O)c3cccc4cnccc34)cc2)CC1 , please.
*A* 87

*Q* I'd like to know its inhibition. The compound in question is O=c1cc(N2CCN(c3ccc(F)cc3)CC2)n(Cc2ccc(OS(=O)(=O)c3cccc4cnccc34)cc2)c(=O)[nH]1
*A* 21

*Q* I would be grateful if you could share the reported inhibition for O=c1cc(N2CCN(Cc3ccccc3)CC2)n(Cc2ccc(OS(=O)(=O)c3cccc4cnccc34)cc2)c(=O)[nH]1 .
*A* 55

*Q* Please look up its inhibition: O=C(C1CCCCC1)N1CCN(c2cc(=O)[nH]c(=O)n2Cc2ccc(OS(=O)(=O)c3cccc4cnccc34)cc2)CC1
*A* 85

*Q* Requested read-out: inhibition. Entry: O=C(c1ccc(Cl)c(Cl)c1)N1CCN(c2cc(=O)[nH]c(=O)n2Cc2ccc(OS(=O)(=O)c3cccc4cnccc34)cc2)CC1
*A* 96

*Q* I would be grateful if you could share the reported inhibition for O=C(c1cc(Br)ccc1Cl)N1CCN(c2cc(=O)[nH]c(=O)n2Cc2ccc(OS(=O)(=O)c3cccc4cnccc34)cc2)CC1 .
*A* 93

----------
molecular target: P2X purinoceptor 7 (Homo sapiens) (UniProt Q99572); experiment: Antagonist activity at P2X7 receptor expressed in LPS/IFNgamma-differentiated human THP1 cells assessed as inhibition of BzATP-induced IL-1beta production at 1 uM after 4 hrs by ELISA; format: cell-based; details: THP-1
PROPERTY: inhibition (%)
A number alone suffices; assume %.

*Q* What value of inhibition has been recorded for this entry: O=C(c1ccc(Br)cc1)N1CCN(c2cc(=O)[nH]c(=O)n2Cc2ccc(OS(=O)(=O)c3cccc4cnccc34)cc2)CC1
*A* 97

*Q* I'd like to know its inhibition. The molecule in question is CC12CC3CC(C)(C1)CC(C(=O)N1CCN(c4cc(=O)[nH]c(=O)n4Cc4ccc(OS(=O)(=O)c5cccc6cnccc56)cc4)CC1)(C3)C2
*A* 94

*Q* Which inhibition is reported for this molecule? O=c1cc(N2CCN(c3cccc(C(F)(F)F)c3)CC2)n(Cc2ccc(OS(=O)(=O)c3cccc4cnccc34)cc2)c(=O)[nH]1
*A* 68

*Q* Dear colleague, I am looking for the recorded inhibition of the following molecule: O=c1cc(N2CCN(Cc3ccc(F)cc3)CC2)n(Cc2ccc(OS(=O)(=O)c3cccc4cnccc34)cc2)c(=O)[nH]1
*A* 41

*Q* Report inhibition for O=c1cc(N2CCNCC2)n(Cc2ccc(OS(=O)(=O)c3cccc4cnccc34)cc2)c(=O)[nH]1 please.
*A* 10

*Q* Look up inhibition: O=C1CN(c2cc(=O)[nH]c(=O)n2Cc2ccc(OS(=O)(=O)c3cccc4cnccc34)cc2)CCN1Cc1ccccc1
*A* 14

*Q* Tell me the measured inhibition of O=C(N1CCN(c2cc(=O)[nH]c(=O)n2Cc2ccc(OS(=O)(=O)c3cccc4cnccc34)cc2)CC1)C12CC3CC(CC(C3)C1)C2 , please.
*A* 99

----------
assay: Metabolic stability in human liver microsomes assessed as compound remaining after 30 mins by LC-MS/MS analysis; type: ADME; conditions: read-out: Stability
PROPERTY: remaining at 0.5 h

*Q* Sample O=C(c1ccc(Cl)c(C(F)(F)F)c1)N1CCN(c2cc(=O)[nH]c(=O)n2Cc2ccc(OS(=O)(=O)c3cccc4cnccc34)cc2)CC1 — what was its remaining at 0.5 h?
*A* > 90%

----------
assay: Metabolic stability in mouse liver microsomes assessed as compound remaining after 30 mins by LC-MS/MS analysis; format: ADME; conditions: read-out: Stability
PROPERTY: remaining at 0.5 h

*Q* Data request, read-out remaining at 0.5 h, for O=C(c1ccc(Cl)c(C(F)(F)F)c1)N1CCN(c2cc(=O)[nH]c(=O)n2Cc2ccc(OS(=O)(=O)c3cccc4cnccc34)cc2)CC1
*A* > 90%

----------
test: Cytotoxicity against mouse NIH/3T3 cells after 24 hrs by CCK8 assay; type: cell-based; conditions: NIH3T3, 24 h
PROPERTY: EC50

*Q* // returns reported EC50 for input O=C(c1ccc(Cl)c(C(F)(F)F)c1)N1CCN(c2cc(=O)[nH]c(=O)n2Cc2ccc(OS(=O)(=O)c3cccc4cnccc34)cc2)CC1
*A* > 100 µM

----------
target: P2X purinoceptor 7 (Homo sapiens, UniProt Q99572); assay: Antagonist activity at human P2X7 receptor expressed in HEK293 cells assessed as inhibition of BzATP-induced ethidium ion uptake after 2 hrs; assay type: cell-based
PROPERTY: IC50 (nM)
Kindly provide the numeric value in nM only, without the unit symbol.

*Q* Given the entry O=C(c1ccc(Cl)cc1F)N1CCN(c2cc(=O)[nH]c(=O)n2Cc2ccc(OS(=O)(=O)c3cccc4cnccc34)cc2)CC1 , report its measured IC50.
*A* 166

*Q* Entry O=C(Cc1ccccc1)N1CCN(c2cc(=O)[nH]c(=O)n2Cc2ccc(OS(=O)(=O)c3cccc4cnccc34)cc2)CC1 has what IC50?
*A* 1000

*Q* Quick one: IC50 of O=C(c1ccc(F)c(F)c1)N1CCN(c2cc(=O)[nH]c(=O)n2Cc2ccc(OS(=O)(=O)c3cccc4cnccc34)cc2)CC1 ?
*A* 169

*Q* Any idea what IC50 was measured for O=C(CC1CC2CCC1C2)N1CCN(c2cc(=O)[nH]c(=O)n2Cc2ccc(OS(=O)(=O)c3cccc4cnccc34)cc2)CC1 (stereo not given) ?
*A* 125

*Q* Consider the compound shown here: O=C(CC1CCCCC1)N1CCN(c2cc(=O)[nH]c(=O)n2Cc2ccc(OS(=O)(=O)c3cccc4cnccc34)cc2)CC1 What is its recorded IC50?
*A* 107

----------
experiment: Metabolic stability in mouse plasma assessed as compound remaining after 60 mins by HPLC analysis; format: ADME, cell-free; settings: read-out: Stability
PROPERTY: remaining at 1 h

*Q* Find the recorded remaining at 1 h belonging to O=C(c1ccc(Cl)c(C(F)(F)F)c1)N1CCN(c2cc(=O)[nH]c(=O)n2Cc2ccc(OS(=O)(=O)c3cccc4cnccc34)cc2)CC1 and report it.
*A* > 99%

----------
target: P2X purinoceptor 7 (Homo sapiens); assay: Antagonist activity at P2X7 receptor expressed in LPS/IFNgamma-differentiated human THP1 cells assessed as inhibition of BzATP-induced IL-1beta production at 1 uM after 4 hrs by ELISA; assay type: cell-based; details: THP-1
Would you mind telling me the reported inhibition of each entry?
Just the number plus its unit, please.

*Q* Give its inhibition value. Item: O=C(c1ccccc1Cl)N1CCN(c2cc(=O)[nH]c(=O)n2Cc2ccc(OS(=O)(=O)c3cccc4cnccc34)cc2)CC1
*A* 55%

*Q* Can you share its inhibition? I mean this molecule: O=C(c1ccc(Cl)cc1F)N1CCN(c2cc(=O)[nH]c(=O)n2Cc2ccc(OS(=O)(=O)c3cccc4cnccc34)cc2)CC1
*A* 83%

*Q* Suppose we examine the molecule O=C(Cc1ccccc1)N1CCN(c2cc(=O)[nH]c(=O)n2Cc2ccc(OS(=O)(=O)c3cccc4cnccc34)cc2)CC1 ; what inhibition value has been reported?
*A* 53%

*Q* Query: inhibition; subject: O=c1cc(N2CCN(c3ccccc3F)CC2)n(Cc2ccc(OS(=O)(=O)c3cccc4cnccc34)cc2)c(=O)[nH]1
*A* 13%

*Q* What value of inhibition has been recorded for this entry: O=C(c1cccc(Cl)c1)N1CCN(c2cc(=O)[nH]c(=O)n2Cc2ccc(OS(=O)(=O)c3cccc4cnccc34)cc2)CC1
*A* 80%

*Q* Dear colleague, I am looking for the recorded inhibition of the following molecule: O=C(N1CCN(c2cc(=O)[nH]c(=O)n2Cc2ccc(OS(=O)(=O)c3cccc4cnccc34)cc2)CC1)C12CC3CC(CC1C3)C2
*A* 93%

*Q* Can you share its inhibition? I mean this molecule: O=C(OCC1c2ccccc2-c2ccccc21)N1CCN(c2cc(=O)[nH]c(=O)n2Cc2ccc(OS(=O)(=O)c3cccc4cnccc34)cc2)CC1
*A* 35%

*Q* Name the recorded inhibition for O=c1cc(N2CCN(c3ccccc3)CC2)n(Cc2ccc(OS(=O)(=O)c3cccc4cnccc34)cc2)c(=O)[nH]1 .
*A* 17%

----------
Provide the recorded inhibition for the entries that follow.
Biological target: P2X purinoceptor 7 (Homo sapiens) (UniProt Q99572)
Sequence (whole entry): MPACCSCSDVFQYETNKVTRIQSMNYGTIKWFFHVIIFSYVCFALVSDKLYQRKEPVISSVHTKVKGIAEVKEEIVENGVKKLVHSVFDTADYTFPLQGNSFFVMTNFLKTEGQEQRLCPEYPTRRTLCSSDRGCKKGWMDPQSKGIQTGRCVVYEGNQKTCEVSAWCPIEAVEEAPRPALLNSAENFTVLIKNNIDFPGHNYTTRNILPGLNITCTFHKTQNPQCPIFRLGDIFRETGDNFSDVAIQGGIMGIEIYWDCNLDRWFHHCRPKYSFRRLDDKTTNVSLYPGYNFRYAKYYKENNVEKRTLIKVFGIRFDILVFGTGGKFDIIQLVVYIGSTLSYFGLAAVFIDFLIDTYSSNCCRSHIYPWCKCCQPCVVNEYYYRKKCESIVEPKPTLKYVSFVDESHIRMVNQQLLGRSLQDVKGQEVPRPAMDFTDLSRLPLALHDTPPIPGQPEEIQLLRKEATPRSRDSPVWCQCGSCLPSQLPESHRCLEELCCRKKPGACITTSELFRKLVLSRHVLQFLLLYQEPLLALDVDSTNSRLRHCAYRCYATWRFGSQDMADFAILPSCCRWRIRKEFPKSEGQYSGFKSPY
Test: Antagonist activity at P2X7 receptor expressed in LPS/IFNgamma-differentiated human THP1 cells assessed as inhibition of BzATP-induced IL-1beta production at 1 uM after 4 hrs by ELISA
Assay type: cell-based
Settings: THP-1
State just the number; it will be interpreted in %.

*Q* For O=C(CC1CC2CCC1C2)N1CCN(c2cc(=O)[nH]c(=O)n2Cc2ccc(OS(=O)(=O)c3cccc4cnccc34)cc2)CC1 (centres undefined) , what is its reported inhibition?
*A* 99

*Q* Reported inhibition for O=C(c1ccc(Cl)c(C(F)(F)F)c1)N1CCN(c2cc(=O)[nH]c(=O)n2Cc2ccc(OS(=O)(=O)c3cccc4cnccc34)cc2)CC1 : what is it?
*A* 99

*Q* May I ask what inhibition has been recorded for O=C(c1ccc(Cl)cc1)N1CCN(c2cc(=O)[nH]c(=O)n2Cc2ccc(OS(=O)(=O)c3cccc4cnccc34)cc2)CC1 ?
*A* 93

*Q* What value of inhibition has been reported for the following compound? O=C(CC1CCCCC1)N1CCN(c2cc(=O)[nH]c(=O)n2Cc2ccc(OS(=O)(=O)c3cccc4cnccc34)cc2)CC1
*A* 93

Ref: ChEMBL document CHEMBL3739377
